- Tgt: EGFR (Homo sapiens, UniProt P00533)
- Construct: Kinases are expressed as either kinase domains or full length constructs; made in house
- Sequence (P00533 25-1210, species assumed): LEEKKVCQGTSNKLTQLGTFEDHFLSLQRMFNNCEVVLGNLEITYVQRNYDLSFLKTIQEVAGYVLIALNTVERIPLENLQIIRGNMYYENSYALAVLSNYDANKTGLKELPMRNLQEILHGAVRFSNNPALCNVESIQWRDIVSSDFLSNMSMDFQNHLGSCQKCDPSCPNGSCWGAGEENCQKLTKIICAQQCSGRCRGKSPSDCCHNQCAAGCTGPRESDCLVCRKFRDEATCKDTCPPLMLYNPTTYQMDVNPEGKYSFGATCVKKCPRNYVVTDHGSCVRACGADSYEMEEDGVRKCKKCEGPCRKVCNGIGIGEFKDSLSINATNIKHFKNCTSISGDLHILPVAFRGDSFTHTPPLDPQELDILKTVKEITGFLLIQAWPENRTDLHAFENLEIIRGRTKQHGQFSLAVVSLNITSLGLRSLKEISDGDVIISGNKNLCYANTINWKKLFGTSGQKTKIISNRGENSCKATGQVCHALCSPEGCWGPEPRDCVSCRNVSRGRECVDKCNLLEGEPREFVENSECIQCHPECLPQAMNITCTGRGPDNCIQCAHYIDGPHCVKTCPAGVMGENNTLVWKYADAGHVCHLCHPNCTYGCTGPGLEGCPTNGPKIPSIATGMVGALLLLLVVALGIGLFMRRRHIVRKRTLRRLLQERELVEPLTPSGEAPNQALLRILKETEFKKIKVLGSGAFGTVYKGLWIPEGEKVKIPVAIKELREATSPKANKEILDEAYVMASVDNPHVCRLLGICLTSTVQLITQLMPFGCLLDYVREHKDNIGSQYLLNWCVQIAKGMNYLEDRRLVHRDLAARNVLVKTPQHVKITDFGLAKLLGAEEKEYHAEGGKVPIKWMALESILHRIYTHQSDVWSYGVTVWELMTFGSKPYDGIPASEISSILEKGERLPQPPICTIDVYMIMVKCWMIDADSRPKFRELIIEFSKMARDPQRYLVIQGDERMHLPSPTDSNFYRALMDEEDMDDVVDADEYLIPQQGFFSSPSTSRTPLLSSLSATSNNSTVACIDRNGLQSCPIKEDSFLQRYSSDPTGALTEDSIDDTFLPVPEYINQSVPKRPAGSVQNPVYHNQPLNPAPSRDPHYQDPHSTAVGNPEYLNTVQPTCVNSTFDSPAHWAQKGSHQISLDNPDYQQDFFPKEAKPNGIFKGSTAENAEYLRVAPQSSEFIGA
- Assay Details: Kinase inhibition assay (33P transfer), EGFR
- Type: biochemical
- Cond: Table 2, kinase inhibition class; read-out: EGFR-1
Collected IC50 values appear next to each entry.

Reference set (5 entries):
1) COc1cc(Nc2ncnc(N(c3ccccc3)c3nc4ccccc4[nH]3)n2)cc(OC)c1OC ... < 0.852 µM
2) O=C(O)Cc1cccc(Nc2ncnc(Nc3cc(-c4ccco4)n[nH]3)n2)c1 ... < 1.06 µM
3) COc1cc(Nc2ncnc(-n3c(Nc4cccc(F)c4)nc4ccccc43)n2)cc(OC)c1OC ... 4.92 to 7.18 µM
4) CC(C)(C)OC(=O)NCc1ccc(Nc2ncnc(Nc3cc(-c4ccco4)n[nH]3)n2)cc1 ... 0.892 to 5.35 µM
5) COc1cccc(Nc2ncnc(-c3cccs3)n2)n1 ... > 15.8 µM

Record COC(=O)c1cccc(Nc2nc3ccccc3n2-c2ncnc(Nc3cc(OC)c(OC)c(OC)c3)n2)c1 ; system EGFR (Homo sapiens, UniProt P00533); IC50 = > 8.53 µM

Record O=c1[nH]c2ccccc2n1-c1ncnc(Nc2ccc3ncccc3c2)n1 ; system EGFR (Homo sapiens, UniProt P00533); IC50 = 9.85 to 12.7 µM

Record CCN(CC)CCNc1ncnc(N(C)c2cccc(Cl)c2)n1 ; system EGFR (Homo sapiens, UniProt P00533); IC50 = 1.19 to 7.17 µM

Value source: patent US7074789B2
